Test: Ninety-day toxicity study in dogs
Format: in vivo, dog
Settings: dog, in vivo, read-out: terminal half-life (converted)
propertyLabel: half-life (h)
Entry rule: numbers only, all in h.

Answer with the recorded half-life for the compound listed here: CC(C)(C)c1cc(NC(=O)Nc2ccc(-c3cn4c(n3)sc3cc(OCCN5CCOCC5)ccc34)cc2)no1 [compound of Formula I]
5.9

====

Assay: in vivo
Conditions: mouse, plasma, oral, 1 mg/kg
propertyLabel: AUC(0-t) (ng·h/mL)
Entry rule: numbers only, all in ng·h/mL.

Answer with the recorded AUC(0-t) for the molecule listed here: CC(C)(C)c1cc(NC(=O)Nc2ccc(-c3cn4c(n3)sc3cc(OCCN5CCOCC5)ccc34)cc2)no1 [compound of Formula I]
1790
